Measured values drawn from ChEMBL document CHEMBL3627650 for this set.

SUBJECT_OF_TEST: Mu-type opioid receptor (Homo sapiens)
PROTOCOL_SUMMARY: Displacement of [3H]-DAMGO from mu opioid receptor (unknown origin) transfected in HEK293 cells
pKi: −log10 of the molar value.
pKi for assorted molecules

{"SMILES_STRING": "C=C(C(N)=O)[C@H](NC(=O)[C@H](Cc1c[nH]c2ccccc12)NC(=O)[C@@H]1CCCN1C(=O)[C@@H](N)Cc1ccc(O)cc1)c1cccs1", "pKi": 9.25}
{"SMILES_STRING": "C=C(C(N)=O)[C@H](NC(=O)[C@H](Cc1c[nH]c2ccccc12)NC(=O)[C@@H]1CCCN1C(=O)[C@@H](N)Cc1ccc(O)cc1)c1ccsc1", "pKi": 9.29}

----------
SUBJECT_OF_TEST: Mu-type opioid receptor (Homo sapiens, UniProt P35372)
Sequence (P35372 whole entry): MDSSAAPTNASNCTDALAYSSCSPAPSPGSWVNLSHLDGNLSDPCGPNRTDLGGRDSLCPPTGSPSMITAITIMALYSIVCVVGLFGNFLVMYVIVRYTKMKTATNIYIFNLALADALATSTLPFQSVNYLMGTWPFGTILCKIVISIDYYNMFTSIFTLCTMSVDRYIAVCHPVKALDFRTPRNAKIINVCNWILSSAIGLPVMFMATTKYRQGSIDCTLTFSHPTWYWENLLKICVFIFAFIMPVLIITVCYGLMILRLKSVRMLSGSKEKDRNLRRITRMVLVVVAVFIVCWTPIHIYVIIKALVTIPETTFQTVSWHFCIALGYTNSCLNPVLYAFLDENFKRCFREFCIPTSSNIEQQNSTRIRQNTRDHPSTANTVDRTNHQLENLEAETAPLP
PROTOCOL_SUMMARY: Agonist activity at mu opioid receptor (unknown origin) transfected in HEK293 cells assessed as inhibition of forskolin-stimulated cAMP production
pEC50: −log10 of the molar value.

{"SMILES_STRING": "C=C(C(N)=O)[C@H](NC(=O)[C@H](Cc1c[nH]c2ccccc12)NC(=O)[C@@H]1CCCN1C(=O)[C@@H](N)Cc1ccc(O)cc1)c1cccs1", "pEC50": 10.20}
{"SMILES_STRING": "C=C(C(N)=O)[C@H](NC(=O)[C@H](Cc1c[nH]c2ccccc12)NC(=O)[C@@H]1CCCN1C(=O)[C@@H](N)Cc1ccc(O)cc1)c1ccsc1", "pEC50": 10.19}

----------
# Ki per entry
SUBJECT_OF_TEST: Delta-type opioid receptor (Homo sapiens)
Sequence (P41143 whole entry): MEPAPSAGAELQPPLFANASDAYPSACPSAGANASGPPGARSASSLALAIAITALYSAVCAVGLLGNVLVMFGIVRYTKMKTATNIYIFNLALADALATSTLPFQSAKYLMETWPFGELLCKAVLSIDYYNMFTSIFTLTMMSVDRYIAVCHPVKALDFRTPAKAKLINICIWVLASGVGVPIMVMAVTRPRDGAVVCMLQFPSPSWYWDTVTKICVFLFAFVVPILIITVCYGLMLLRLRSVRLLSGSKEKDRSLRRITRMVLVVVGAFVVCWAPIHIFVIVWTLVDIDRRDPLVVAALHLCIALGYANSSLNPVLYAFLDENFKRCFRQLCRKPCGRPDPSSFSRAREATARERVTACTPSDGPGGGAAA
PROTOCOL_SUMMARY: Displacement of [3H]-DPDPE from delta opioid receptor (unknown origin) transfected in HEK293 cells

{"SMILES_STRING": "C=C(C(N)=O)[C@H](NC(=O)[C@H](Cc1c[nH]c2ccccc12)NC(=O)[C@@H]1CCCN1C(=O)[C@@H](N)Cc1ccc(O)cc1)c1cccs1", "Ki / µM": 12}
{"SMILES_STRING": "C=C(C(N)=O)[C@H](NC(=O)[C@H](Cc1c[nH]c2ccccc12)NC(=O)[C@@H]1CCCN1C(=O)[C@@H](N)Cc1ccc(O)cc1)c1ccsc1", "Ki / µM": 13.3}
